- PROTOCOL_TEXT: S. cerevisiae growth modulation with rapamycin, primary screen, strain BY4716, OD600, 96 h (AID 1091); further: test concentration not given here
- SETUP_CONDITIONS: called active from +8 up or from −8 down
Calls of active or inactive are those of the source.
Pick one and only one: active, inactive

Worked cases, answers included:
COMPOUND | LABEL_VALUE
COC(=O)C[C@@H]1C[C@H](C)[C@]2(O1)C(=O)N(Cc1ccccc1)c1ccc(NC(C)=O)cc12 | inactive
O=C1OCC=C[C@H]2OC34C=CCN(c5ccc6ccccc6c5)C(=O)[C@H]3N(CCCO)C(=O)[C@@H]4[C@@H]12 (some centres not stated) | inactive
CC(=O)C1=CCC(c2ccccc2)N(S(=O)(=O)c2ccc(C)cc2)C1 (configuration not stated) | inactive
Cc1cc(C)c(C(O)C2C=CC3C(=O)N(C)C(=O)C3N2Nc2ccccc2)c(C)c1 (configuration not stated) | inactive
CC(=O)NCCCC[C@@H]1NC(=O)[C@@H]2C[C@H](C(=O)NCCCCN(C)C)[C@H](c3ccc(O)cc3)N2C1=O | inactive
O=C1C2C=CC(C(O)c3ccc(F)cc3)N(Nc3ccccc3)C2C(=O)N1c1ccccc1 (configuration not stated) | inactive

Hi, sorry to bother you, what did the test record for [N-]=[N+]=NCc1ccccc1C[C@@]1(C(=O)N2CCOCC2)N=C(c2ccc(OCCCO)cc2)O[C@@H]1c1ccccc1CN=[N+]=[N-] ?
active

Moving on to the next compound: COC(=O)c1ccc(C23CC2(C(NP(=O)(c2ccccc2)c2ccccc2)c2ccccc2)C3)cc1 (configuration not stated)
inactive

Moving on to the next compound: CC(C)(C)N1CC=CC23O[C@@H]4C=CCOC(=O)[C@@H]4[C@H]2C(=O)N(CCCCCO)[C@@H]3C1=O (some centres not stated)
inactive

---

- Test system: Plasmodium falciparum Sir2 (PF13_0152, Sir2A)
- PROTOCOL_TEXT: pfSir2 binders on small-molecule microarrays, primary screen, biochemical, small-molecule microarray, 635 nm fluorescence (AID 1098);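 further: score merges spot fluorescence intensity with its signal-to-noise ratio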
- SETUP_CONDITIONS: small-molecule microarray binding, fluorescence 635 nm; higher = more signal
Binary call on composite z-score: MET from 1 upward, NOT MET beneath that.

Answered cases to consult:
MOLECULE | LABEL_VALUE
CCCCCN1CC=CC23O[C@@H]4/C=C\CCC(C)OC(=O)C4[C@H]2C(=O)N(CCCCCO)[C@@H]3C1=O (stereo partly specified) | NOT MET
C=CCC(OC(C)=O)[C@@H]1[C@@H](N(Cc2ccc(-c3ccccc3)cc2)C(=O)Cc2ccc(OC)cc2)c2cc(OCCCO)ccc2N1C(=O)c1ccc2ccccc2n1 (stereo partly specified) | NOT MET

Please check the record CCCCC(O)C1C=CC2C(=O)N(C3CCCCC3)C(=O)C2N1Nc1ccc(OC)cc1 (stereo unspecified) and state if its composite z-score is at or above 1.
NOT MET

Another molecule: C=CCOC(=O)[C@@H]1[C@H]2C(=O)O[C@H](c3ccccc3)[C@H](c3ccccc3)N2[C@H](c2ccc(OCCOC(=O)[C@@H]3C[C@@H]4C(=O)NCC(=O)N4[C@@H]3c3cccc(OCCO)c3)cc2)[C@@]12C(=O)Nc1ccc(I)cc12
MET

C[N+](C)(C)CCCCCCNC(=O)[C@H]1C[C@H]2C(=O)N3CCC[C@H]3C(=O)N2[C@H]1c1ccc(O)cc1 , same question.
MET

Same for NC(=O)NCC#Cc1ccc2c(c1)[C@]1(C(=O)N2)[C@H](C(=O)N2CCCCCCC2)[C@H]2C(=O)O[C@H](c3ccccc3)[C@H](c3ccccc3)N2[C@@H]1c1ccc(OCCO)cc1
MET

Please answer likewise for COCCOC(=O)N1C(=O)[C@@]2(c3cc(C#CCC(C(=O)OC)C(=O)OC)ccc31)[C@H](C(=O)N1CCN(c3ncccn3)CC1)[C@H]1C(=O)O[C@H](c3ccccc3)[C@H](c3ccccc3)N1[C@@H]2c1ccc(OCCO)cc1
MET

Thanks! And CCOC(=O)C[C@H]1[C@H](OC(=O)c2ccc(-c3ccccc3)cc2)[C@@H](NC(=O)c2ccc3ccccc3c2)c2cc(OCCCO)ccc2N1C(=O)Cc1ccc(OC)cc1 ?
NOT MET

Here is the next molecule: Cc1cc(C)c(C(O)C2C=CC3C(=O)N(c4ccccc4)C(=O)C3N2Nc2ccc(C#N)cc2)c(C)c1 (stereo unspecified)
NOT MET

Now this one: NC(=O)NCC#Cc1ccc2c(c1)[C@]1(C(=O)N2)[C@H](C(=O)NC[C@H](O)c2ccccc2)[C@H]2C(=O)O[C@H](c3ccccc3)[C@H](c3ccccc3)N2[C@@H]1c1ccc(O)cc1
MET

Likewise for C=CCOC(=O)[C@H]1[C@@H]2C(=O)O[C@@H](c3ccccc3)[C@@H](c3ccccc3)N2[C@@H](c2ccc(OCCOC(=O)[C@@H]3C[C@@H]4C(=O)N5CCC[C@H]5C(=O)N4[C@@H]3c3ccc(O)cc3)cc2)[C@]12C(=O)Nc1ccccc12 ?
MET

Then what about the molecule O=C1C[C@@](C(=O)NC2CC2)(c2ccc([N+](=O)[O-])cc2)[C@@H](c2ccc(CO)cc2)N1CC12CC3CC(CC(C3)C1)C2 ?
MET

This collection of values is drawn from PubChem BioAssay.
